The values you see were collected from PubChem BioAssay (NCATS).

Experiment: qHTS Assay for Identifying Gametocytocidal Compounds (AID 743244);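 also: % is scaled to controls: 0 for no effect and ±100 for the full control effect; actives lower the fluorescent signal which means gametocytes are killed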
Conditions: P. falciparum 3D7 stage III-V gametocytes, alamarBlue, 72 h; hits give low values
Results filed as inconclusive are left out.

Molecule: O=C(OCC#CCSc1nnc(-c2ccc3ccccc3c2)o1)c1cc2ccccc2s1
max response (%): 9.28
--
Molecule: CC(c1cc2ccccc2s1)N(O)C(N)=O (stereo not given)
max response (%): 2.55
--
Molecule: OC[C@H](Cc1ccccc1)Nc1nc(Oc2ccc3c(c2)CCC3)nc2c1ncn2Cc1ccc(-c2ccccc2)cc1
max response (%): -2.93
--
Molecule: Nc1cccc(S(=O)(=O)N2CCCN(S(=O)(=O)c3ccc4c(c3)OCCO4)CC2)c1
max response (%): 3.74
--
Molecule: O=C(NOC[C@H](O)CO)c1ccc(F)c(F)c1Nc1ccc(I)cc1F
max response (%): 24.9
--
Molecule: COc1ccc(CCN2CCN(CCCc3ccccc3)CC2)cc1OC
max response (%): -5.52
--
Molecule: Cc1cc(SCc2sc(-c3ccc(C(F)(F)F)cc3)nc2C)ccc1OCC(=O)O
max response (%): 25.7
--
Molecule: Cc1ccc(NC(=O)c2cccc(C(C)(C)C#N)c2)cc1Nc1ccc2ncn(C)c(=O)c2c1
max response (%): -12.3
--
Molecule: CC(=O)NC(C)c1ccc(Oc2ccc(OC(C)C)cc2)cc1 (stereo not given)
max response (%): -4.97
--
Molecule: CS(=O)(=O)Oc1ccc2c(NC(N)=O)c(C(=O)c3ccc(Cl)cc3Cl)oc2c1
max response (%): 25
